Reported kd ratio pH 7.4/6.0 values for a set of binders
biological target: T1, cyno FcRn/b2M (cyno, UniProt Q8SPV9 24-297; Q8SPW0 21-119, biotinylated); assay: SPR off-rate; pH 7.4 vs pH 6.0;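 also: surface plasmon resonance with diluted periplasmic extracts flowed over ligand surfaces, 120 s association and 600–3600 s dissociation at 25 °C, running buffer containing 150 mM NaCl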
T1 construct: bought recombinant biotinylated protein (Immunitrack ITF05 or ACRO FCM-C82W5); also called cFcRn; cFcRn/cb2M
T1 sequence (Q8SPV9 24-297 limits assumed, chain 1 of 2): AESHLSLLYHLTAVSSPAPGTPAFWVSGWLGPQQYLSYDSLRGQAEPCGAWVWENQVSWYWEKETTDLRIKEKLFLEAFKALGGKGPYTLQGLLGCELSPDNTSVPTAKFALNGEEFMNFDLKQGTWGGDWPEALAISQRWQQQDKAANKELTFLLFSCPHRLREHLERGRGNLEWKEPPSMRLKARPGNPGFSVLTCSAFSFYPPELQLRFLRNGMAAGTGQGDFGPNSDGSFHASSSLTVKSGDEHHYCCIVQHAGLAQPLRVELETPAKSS
T1 sequence (Q8SPW0 21-119 limits assumed, chain 2 of 2): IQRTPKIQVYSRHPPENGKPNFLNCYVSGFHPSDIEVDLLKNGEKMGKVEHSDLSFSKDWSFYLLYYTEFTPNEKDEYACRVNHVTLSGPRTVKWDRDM
I only need the number, thanks.

Below, 5 binders whose answers are already recorded.
T0263018B11 T57P (VHH, name in Kabat numbering, FLAG3-His6 tagged) VHH: EVQLVESGGGVVQPGGSLRLSCAASGFTFSSYAMYWVRQAPGKGLEWVSAISSGGGSPDYADSVKGRFTISRDNSKNTLYLQMNSLRPEDTALYYCAADTLYTSLTWYSYWGQGTLVTVSS: 42
T0263018B11 W100cE (VHH, name in Kabat numbering, FLAG3-His6 tagged) VHH: EVQLVESGGGVVQPGGSLRLSCAASGFTFSSYAMYWVRQAPGKGLEWVSAISSGGGSTDYADSVKGRFTISRDNSKNTLYLQMNSLRPEDTALYYCAADTLYTSLTEYSYWGQGTLVTVSS: 71
T0263018B11 T28N (VHH, name in Kabat numbering, FLAG3-His6 tagged) VHH: EVQLVESGGGVVQPGGSLRLSCAASGFNFSSYAMYWVRQAPGKGLEWVSAISSGGGSTDYADSVKGRFTISRDNSKNTLYLQMNSLRPEDTALYYCAADTLYTSLTWYSYWGQGTLVTVSS: 77
T0263018B11 D58V (VHH, name in Kabat numbering, FLAG3-His6 tagged) VHH: EVQLVESGGGVVQPGGSLRLSCAASGFTFSSYAMYWVRQAPGKGLEWVSAISSGGGSTVYADSVKGRFTISRDNSKNTLYLQMNSLRPEDTALYYCAADTLYTSLTWYSYWGQGTLVTVSS: 11
T0263018B11 T100bL (VHH, name in Kabat numbering, FLAG3-His6 tagged) VHH: EVQLVESGGGVVQPGGSLRLSCAASGFTFSSYAMYWVRQAPGKGLEWVSAISSGGGSTDYADSVKGRFTISRDNSKNTLYLQMNSLRPEDTALYYCAADTLYTSLLWYSYWGQGTLVTVSS: 56

Next, consider the following binder.
Endpoint output: kd ratio pH 7.4/6.0 of T0263018B11 G26A (VHH, name in Kabat numbering, FLAG3-His6 tagged) VHH: EVQLVESGGGVVQPGGSLRLSCAASAFTFSSYAMYWVRQAPGKGLEWVSAISSGGGSTDYADSVKGRFTISRDNSKNTLYLQMNSLRPEDTALYYCAADTLYTSLTWYSYWGQGTLVTVSS . Value?
116
